- Test system: biotinyl-Val-oxazolone
- test_details: self-aminoacylation, catalytic enhancement (BVO) (fold over background); higher = more active; k-Seq, kA / k0A0; sequences stand for … in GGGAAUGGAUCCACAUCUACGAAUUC…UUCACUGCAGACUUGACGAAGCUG
This sample holds only a part of the variants without activity.
Could you please report measured self-aminoacylation for the items listed next?
# output: bare number, no unit

Data point: ACUACCCUGGUCAUCGAGUAA [Fam2.1 aminoacylation ribozyme variant] ; self-aminoacylation = 3.99

The reported value for AUUCACCUAGUUCAUCCGGUG [Fam2.2 aminoacylation ribozyme variant] in terms of self-aminoacylation is 2.52

Lookup result for GUUCACCUAGGUCUUCGGGUG [Fam2.2 aminoacylation ribozyme variant] ; measured self-aminoacylation: 4.05

Input ACUCACCUAGGUCAGCGGGUG [Fam2.2 aminoacylation ribozyme variant] . Output self-aminoacylation: 3.86

Consider UUUACCCUGGUCACCGAGUGA [Fam2.1 aminoacylation ribozyme variant] . Its measured self-aminoacylation is 4.12

In plain terms, UUUCACCUAGGUCAUCGGGUA [Fam2.2 aminoacylation ribozyme variant] has a documented self-aminoacylation of 13.9

self-aminoacylation reported for this sequence AUUCACCUAGGUCAAGGGGUG [Fam2.2 aminoacylation ribozyme variant] : 1.3

Reported self-aminoacylation ( CUGCUUCAAACAAUCAGUCUG [Fam1A.1 aminoacylation ribozyme variant] ) = 0.77

So, ACUCACCGAGGUCAUCGGGUG [Fam2.2 aminoacylation ribozyme variant] ? Its self-aminoacylation was 5.07

Data origin: the supplement of paper PMC9233669
